Data origin, for the record: PubChem BioAssay (NCI)

Record form. Attribute: TGI. Fill in for each entry.
Tested on: SK-OV-3 ovarian
method-description: NCI tumour cell line growth inhibition, 48 h

Please state recorded TGI (tested on SK-OV-3 ovarian) of CC(=O)OCC(=O)O[C@@H]1[C@H]2[C@@H](OC(=O)c3ccccc3)[C@@H](C)C[C@]2(O)[C@H](OC(C)=O)[C@@]2(C)C[C@]1(OC(C)=O)C[C@H]1C(=O)C(C)(C)[C@@H](OC(C)=O)[C@@H]12
> 25 µM

Please state recorded TGI (tested on SK-OV-3 ovarian) of O=C1[C@@H](c2ccc(Cl)cc2)[C@H]2CC=C[C@H]2N1O
> 100 µM

Please state recorded TGI (tested on SK-OV-3 ovarian) of COc1cc2cc(Oc3ccc(NC(=O)c4cccc(C(F)(F)F)c4)cc3)c(C)nc2cc1OC
> 100 µM

Please state recorded TGI (tested on SK-OV-3 ovarian) of Cn1c2c(c3ccccc31)CCN1C(=O)C34CCCC3CC21S4 (centres undefined)
> 100 µM

----------
Tested on: OVCAR-5 ovarian
method-description: NCI tumour cell line growth inhibition, 48 h; in the data active means GI50 below about 0.43 µM; inactive means the rest
Lab note: assign the record to one of active, inactive

What was the test verdict on C/C(=N\O)c1ccc(Nc2cc(-n3nnc4ccccc43)nc3ccccc23)cc1 ?
inactive

What was the test verdict on C#C[C@]1(O)CC[C@H]2[C@@H]3CC=C4c5nc(Nc6ccccn6)sc5CC[C@]4(C)[C@H]3CC[C@@]21C ?
inactive

What was the test verdict on CC1(C)N=C(N)N=C(N)N1c1ccc(CCc2ccccc2)c(Cl)c1 ?
active

----------
Record form. Attribute: GI50. Fill in for each entry.
Tested on: SW-620 colon
method-description: NCI tumour cell line growth inhibition, 48 h

Quick one: GI50 of COC(=O)C1=C(OC(=O)c2ccc(Cl)cc2)C(C(=O)OC)[C@@]2(O)[C@@H](C(=O)OC)C(c3ccccc3C(F)(F)F)C[C@@H]1[C@@H]2C(=O)OC (stereo partly drawn) ?
3.83 µM

Quick one: GI50 of CC(=O)c1cccc(N(/C=C/C(=O)C(F)(F)F)CC(=O)c2ccc(Cl)cc2)c1 ?
> 100 µM

Quick one: GI50 of Clc1ccc([O][In]([O]c2ccc(Cl)cn2)[O]c2ccc(Cl)cn2)nc1 ?
> 100 µM

----------
System: TK-10 renal
method-description: NCI tumour cell line growth inhibition, 48 h
Record form. Attribute: TGI. Fill in for each entry.

Quick one: TGI of Cn1c2c(c3ccccc31)CCN1C(=O)C34CCCC3CC21S4 (stereo not drawn) ?
> 100 µM

Quick one: TGI of Clc1ccc(OCc2nnc(COc3ccc(OCc4nnc(COc5ccc(Cl)cc5Cl)o4)c(Cl)c3)o2)c(Cl)c1 ?
> 100 µM

Quick one: TGI of O=C(O)C1=NN(c2ccc(S(=O)(=O)O)cc2)C2(C1)C(Cl)C(=O)N2c1nc2ccccc2s1 (stereo not drawn) ?
33.2 µM

Quick one: TGI of NCCCCNCCCNC(=O)CNC(=O)CC(O)C(N)CCCC(NC(=O)C(CN)NC(=O)C(O)CNC(=O)CC(N)c1ccc(O)cc1)C(=O)O (stereo not drawn) ?
> 10 µM

Quick one: TGI of C[C@]12CC[C@@H]3c4ccc(O)c([N+](=O)[O-])c4CC[C@H]3[C@@H]1CC[C@@H]2NS(=O)(=O)c1ccc(C(F)(F)F)cc1 ?
7.26 µM

Quick one: TGI of CCN1CCN(Cc2ccc(NC(=O)Nc3ccc(-n4ccc5c(NC(=O)c6ccccc6)nccc54)cc3)cc2C(F)(F)F)CC1 ?
> 100 µM

Quick one: TGI of Cc1cccc(NS(=O)(=O)c2ccc(N=Nc3c(O)c(C(=O)O)cc4ccccc34)cc2)n1 ?
> 100 µM

Quick one: TGI of COc1ccc2c(c1)-c1c(c3cc(OC)ccc3n1CCN(C)C)CC2 ?
28.9 µM
